tested on: Enterococcus faecalis; test: Antibacterial activity against Enterococcus faecalis (ATCC 29212); assay type: functional
Measured MIC values are reported for all entries that follow.
Express the result in µg/mL but write the number alone.

CC(=O)NC[C@H]1CN(c2ccc(OC3CN(C(=O)CO)C3)c(F)c2)C(=O)O1	16
CC(=O)NC[C@H]1CN(c2ccc(OC3CCN(C(=O)COCc4ccccc4)CC3)c(F)c2)C(=O)O1	4
CC(=O)NC[C@H]1CN(c2ccc(OC3CCN(C(=O)COCc4ccccc4)C3)c(F)c2)C(=O)O1 (stereo not given in full)	16
CC(=O)NC[C@H]1CN(c2ccc(OC3CCCN(C(=O)COCc4ccccc4)C3)c(F)c2)C(=O)O1 (stereo not given in full)	64
CC(=O)NC[C@H]1CN(c2ccc(OC3CCN(C(=O)CO)CC3)cc2)C(=O)O1	32
CC(=O)NC[C@H]1CN(c2ccc(OC3CCN(C(=O)CO)CC3)c(F)c2)C(=O)O1	8
CC(=O)NC[C@H]1CN(c2ccc(OC3CCCN(C(=O)CO)C3)c(F)c2)C(=O)O1 (stereo not given in full)	16
CC(=O)NC[C@H]1CN(c2ccc(OC3CCN(C(=O)CO)C3)c(F)c2)C(=O)O1 (stereo not given in full)	16

The value of MIC measured for the molecule CC(=O)NC[C@H]1CN(c2ccc(OC3CCN(C(=O)COCc4ccccc4)CC3)cc2)C(=O)O1 turned out to be 16

Item: CC(=O)NC[C@H]1CN(c2ccc(OC3CN(C(=O)COCc4ccccc4)C3)c(F)c2)C(=O)O1 | MIC: 16

----------
test system: Escherichia coli; assay: Antibacterial activity against Escherichia coli (OC 2605); format: functional
Listed here are molecules together with their documented MIC.

Recorded results for 3 molecules are shown here.
CC(=O)NC[C@H]1CN(c2ccc(OC3CCN(C(=O)CO)C3)c(F)c2)C(=O)O1 (some centres undefined)	128 µg/mL
CC(=O)NC[C@H]1CN(c2ccc(OC3CCN(C(=O)CO)CC3)cc2)C(=O)O1	> 128 µg/mL
CC(=O)NC[C@H]1CN(c2ccc(OC3CCN(C(=O)CO)CC3)c(F)c2)C(=O)O1	> 128 µg/mL

MIC on Escherichia coli for CC(=O)NC[C@H]1CN(c2ccc(OC3CN(C(=O)COCc4ccccc4)C3)c(F)c2)C(=O)O1 is > 128 µg/mL
